Kindly state DC50 for each of the entries shown.
biological target: KRAS (Homo sapiens, UniProt P01116); construct: endogenous in cells; host or cells: KE39 (KRAS amplified) cells; assay: KRASamp MSD assay; type: cell-based; settings: KE39 (KRAS amplified) cells, treated with test compounds for 24 hr, MSD readout of KRAS degradation
Sequence (P01116 1-188 isoform P01116-2): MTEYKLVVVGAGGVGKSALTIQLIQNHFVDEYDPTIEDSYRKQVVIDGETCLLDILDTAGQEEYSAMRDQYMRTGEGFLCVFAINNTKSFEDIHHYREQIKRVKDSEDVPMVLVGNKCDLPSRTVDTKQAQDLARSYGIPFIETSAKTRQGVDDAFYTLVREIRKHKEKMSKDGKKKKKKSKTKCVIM

Entry under review: CCc1c(F)ccc2cc(O)cc(-c3ncc4c(N5CCC[C@@](C)(O)C5)nc(OC[C@@]56CCCN5[C@H](COC(=O)Nc5ccc(CN7CCC(c8ccc9c(c8)n(C)c(=O)n9C8CCC(=O)NC8=O)CC7)cc5)CC6)nc4c3F)c12 (stereo partly drawn) . Reported DC50?
< 1 nM

Could you share which DC50 value was measured for Cn1c(=O)n(C2CCC(=O)NC2=O)c2ccc(C3CCN(C4CC5(CCN(C(=O)OC[C@@H]6CC[C@]7(COc8nc(N9CCC[C@@](C)(O)C9)c9cnc(-c%10cc(O)cc%11ccc(F)cc%10%11)cc9n8)CCCN67)CC5)C4)CC3)cc21 (stereo partly drawn) ?
< 1 nM

Which DC50 reading was recorded for the molecule CCc1c(F)ccc2cc(O)cc(-c3ncc4c(N5CCC[C@@](C)(O)C5)nc(OC[C@@]56CCCN5[C@H](COC(=O)NC5CCN(CC7CCN(c8ccc9c(c8)n(C)c(=O)n9C8CCC(=O)NC8=O)CC7)CC5)CC6)nc4c3F)c12 (stereo partly drawn) ?
1 to 10 nM

Item under review: CCc1c(F)ccc2cc(O)cc(-c3ncc4c(N5CCC[C@@](C)(O)C5)nc(OC[C@@]56CCCN5C(CN5CCC(OCCCc7ccc8c(c7)n(C)c(=O)n8C7CCC(=O)NC7=O)CC5)CC6)nc4c3F)c12 (stereo partly drawn) . Reported DC50?
1 to 10 nM

What value of DC50 has been reported for the following molecule? CCc1c(F)ccc2cc(O)cc(-c3ncc4c(N5CCC[C@@](C)(O)C5)nc(OC[C@@]56CCCN5[C@H](COC(=O)N5CC7(CCN(CC#Cc8ccc9c(c8)n(C)c(=O)n9C8CCC(=O)NC8=O)CC7)C5)CC6)nc4c3F)c12 (stereo partly drawn)
< 1 nM

Which measured DC50 value corresponds to CCc1c(F)ccc2cc(O)cc(-c3ncc4c(N5CCC[C@@](C)(O)C5)nc(OC[C@@]56CCCN5[C@H](COC(=O)N5CCC(N7CCC(Cc8ccc9c(c8)n(C)c(=O)n9C8CCC(=O)NC8=O)CC7)CC5)CC6)nc4c3F)c12 (stereo partly drawn) ?
1 to 10 nM

Quick check: DC50 of CCc1cccc2cc(O)cc(-c3cc4nc(OC[C@@]56CCCN5[C@H](COC(=O)N5CCC(CN7CCC(c8ccc9c(c8)n(C)c(=O)n9C8CCC(=O)NC8=O)CC7)CC5)CC6)nc(N5CCC[C@@](C)(O)C5)c4cn3)c12 (stereo partly drawn) ?
< 1 nM

Field request: DC50 | item: C#Cc1c(F)ccc2cc(O)cc(-c3ncc4c(N5CCC[C@@](C)(O)C5)nc(OCC5(CN6CCC(N7CCC(c8ccc9c(C%10CCC(=O)NC%10=O)nn(C)c9c8)CC7)CC6)CC5)nc4c3F)c12 (stereo partly drawn)
≥ 10 nM

Given the molecule CCc1c(F)ccc2cc(O)cc(-c3ncc4c(N5CC6CC6C5)nc(OC[C@@]56CCCN5[C@H](COC(=O)N5CCC7(CC5)CC(N5CCC(c8ccc9c(c8)n(C)c(=O)n9C8CCC(=O)NC8=O)CC5)C7)CC6)nc4c3F)c12 (stereo partly drawn) , what is its reported DC50?
1 to 10 nM

----------
What DC50 was measured for each of the following?
molecular target: KRAS G12D (Homo sapiens, UniProt P01116, G12D); construct: AsPc-1-KRAS (G12D)-HiBit-KI cell (Pharmaron); host or cells: AsPc-1-KRAS (G12D)-HiBit-KI cells (HiBiT knock-in at the endogenous KRAS locus); test: KRAS G12D HiBit assay; format: cell-based; conditions: AsPc-1-KRAS (G12D)-HiBit-KI cell, compound treatment for 24 hours, absolute DC50; class symbols
Sequence (P01116 1-188 isoform P01116-2 G12D): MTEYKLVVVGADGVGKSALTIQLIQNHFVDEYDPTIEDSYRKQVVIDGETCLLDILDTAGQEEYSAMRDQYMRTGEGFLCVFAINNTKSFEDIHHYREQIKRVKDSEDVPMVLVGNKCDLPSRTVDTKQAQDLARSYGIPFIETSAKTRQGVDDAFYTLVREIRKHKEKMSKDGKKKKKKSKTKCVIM

Please look up its DC50: CCc1c(F)ccc2cc(O)cc(-c3ncc4c(N5CCC[C@@](C)(O)C5)nc(OC[C@@]56CCCN5[C@H](CNC(=O)c5ccc(CN7CCC(c8ccc9c(c8)n(C)c(=O)n9C8CCC(=O)NC8=O)CC7)cc5F)CC6)nc4c3F)c12 (some centres unmarked)
< 100 nM

For the compound CCc1c(F)ccc2cc(O)cc(-c3ncc4c(N5CCC[C@@](C)(O)C5)nc(OC[C@@]56CCCN5[C@H](COC(=O)N5CCC(CN7CC8(CC(c9ccc%10c(c9)n(C)c(=O)n%10C9CCC(=O)NC9=O)C8)C7)CC5)CC6)nc4c3F)c12 (some centres unmarked) , what DC50 is on record?
< 100 nM

----------
target: KRAS G12D (Homo sapiens, UniProt P01116, G12D); construct: AsPc-1-KRAS (G12D)-HiBit-KI cell (Pharmaron); host or cells: AsPc-1-KRAS (G12D)-HiBit-KI cells (HiBiT knock-in at the endogenous KRAS locus); assay: KRAS G12D HiBit assay; assay type: cell-based; conditions: AsPc-1-KRAS (G12D)-HiBit-KI cell, compound treatment for 24 hours, absolute DC50; class symbols
recorded metric: DC50

Fill blank: measured DC50 of the molecule CCc1c(F)ccc2cc(O)cc(-c3ncc4c(N5CCC[C@@](C)(O)C5)nc(OC[C@@]56CCCN5[C@H](COC(=O)N5CC7(CCN(CC#Cc8ccc9c(c8)n(C)c(=O)n9C8CCC(=O)NC8=O)CC7)C5)CC6)nc4c3F)c12 (stereo partly drawn) [Compound 453] is ____.
< 100 nM

# query: DC50 of entry C#Cc1c(F)ccc2cccc(-c3ncc4c(N5CCC[C@@](C)(O)C5)nc(OCC5(CN6CCN(CC7CCN(c8ccc9c(c8)C(=O)N(C8CCC(=O)NC8=O)C9=O)CC7)CC6)CC5)nc4c3F)c12 (stereo partly drawn) [Compound 55]
< 100 nM

GET /values?readout=DC50&item= C#Cc1c(F)ccc2cccc(-c3ncc4c(N5CCC[C@@](C)(O)C5)nc(OCC5(CN6CCC7(CC6)CN(c6ccc8c(c6)n(C)c(=O)n8C6CCC(=O)NC6=O)C7)CC5)nc4c3F)c12 (stereo partly drawn) [Compound 40]
> 300 nM

I'd like to know its DC50. The molecule in question is CCc1c(F)ccc2cc(O)cc(-c3ncc4c(N5CC6CC6C5)nc(OC[C@@]56CCCN5[C@H](COC(=O)N5CCC7(CC5)CC(N5CCC(c8ccc9c(c8)n(C)c(=O)n9C8CCC(=O)NC8=O)CC5)C7)CC6)nc4c3F)c12 (stereo partly drawn) [Compound 346]
< 100 nM

For the molecule C#Cc1c(F)ccc2cc(O)cc(-c3ncc4c(N5CCC[C@@](C)(O)C5)nc(OC[C@@]56CCCN5[C@H](COC(=O)N5CCC(CC#Cc7ccc8c(c7)n(C)c(=O)n8C7CCC(=O)NC7=O)CC5)CC6)nc4c3F)c12 (stereo partly drawn) [Compound 375] , what DC50 is on record?
< 100 nM

What value of DC50 has been recorded for this entry: C#Cc1c(F)ccc2cccc(-c3ncc4c(N5CCC[C@@](C)(O)C5)nc(OCC5(CN6CCN(CC7CCN(c8cccc9c8n(C)c(=O)n9C8CCC(=O)NC8=O)CC7)CC6)CC5)nc4c3F)c12 (stereo partly drawn) [Compound 78]
> 300 nM

GET /values?readout=DC50&item= C#Cc1c(F)ccc2cc(O)cc(-c3ncc4c(N5CCC[C@@](C)(O)C5)nc(OC[C@@]56CCCN5[C@H](COC(=O)N5CCC(CN7CCC(c8cc9c(cc8F)n(C8CCC(=O)NC8=O)c(=O)n9C)CC7)CC5)CC6)nc4c3F)c12 (stereo partly drawn) [Compound 407]
< 100 nM

Param item = Cn1c(=O)n(C2CCC(=O)NC2=O)c2ccc(C3CCN(CC4CCN(C(=O)CN5CCN(c6nccc(-c7noc([C@@]8(C)CCCc9sc(N)c(C#N)c98)n7)n6)CC5)CC4)CC3)cc21 (stereo partly drawn) [Compound 224] ; retrieve measured DC50.
> 300 nM

Which value of DC50 has been reported for C#Cc1c(F)ccc2cc(O)cc(-c3ncc4c(N5CCC[C@@](C)(O)C5)nc(OC[C@@]56CCCN5[C@H](COC(=O)N5CCC(OCC#Cc7cccc8c7n(C)c(=O)n8C7CCC(=O)NC7=O)CC5)CC6)nc4c3F)c12 (stereo partly drawn) [Compound 372] in the records?
< 100 nM

----------
biological target: KRAS (Homo sapiens); construct: endogenous in cells; host or cells: KE39 (KRAS amplified) cells; assay: KRASamp MSD assay; assay type: cell-based; settings: KE39 (KRAS amplified) cells, treated with test compounds for 24 hr, MSD readout of KRAS degradation
recorded metric: DC50

Could you tell me which DC50 is on file for C#Cc1c(F)ccc2cc(O)cc(-c3ncc4c(N5CCC[C@@](C)(O)C5)nc(OC[C@@]56CCCN5[C@H](COC(=O)N5CCC7(CC5)CC(CN5CCC(c8ccc9c(c8)n(C)c(=O)n9C8CCC(=O)NC8=O)CC5)C7)CC6)nc4c3F)c12 (some centres unmarked) [Compound 323] ?
1 to 10 nM

Could you share which DC50 value was measured for C#Cc1c(F)ccc2cc(O)cc(-c3ncc4c(N5CCC[C@@](C)(O)C5)nc(OC[C@@]56CCCN5[C@H](COC(=O)N5CCC7(CC5)CC(N5CCC(c8cccc9c8n(C)c(=O)n9C8CCC(=O)NC8=O)CC5)C7)CC6)nc4c3F)c12 (some centres unmarked) [Compound 387] ?
≥ 10 nM

Suppose we examine the molecule CCc1c(F)ccc2cc(O)cc(-c3ncc4c(N5CCC[C@@](C)(O)C5)nc(OC[C@]56CCCN5[C@H](COC(=O)NC5CCN(c7cccc8c7n(C)c(=O)n8C7CCC(=O)NC7=O)CC5)CC6)nc4c3F)c12 (some centres unmarked) [Compound 311] ; what DC50 value has been reported?
≥ 10 nM

Reported DC50, molecule C#Cc1cc(F)cc2cc(O)cc(-c3ncc4c(N5CCC[C@@](C)(O)C5)nc(OC[C@@]56CCCN5[C@H](COC(=O)N5CCC(CN7CCC(c8ccc9c(c8)n(C)c(=O)n9C8CCC(=O)NC8=O)CC7)CC5)CC6)nc4c3F)c12 (some centres unmarked) [Compound 405] : ____
1 to 10 nM

Which DC50 is reported for this molecule? C#Cc1c(F)ccc2cc(O)cc(-c3ncc4c(N5CCCCC5)nc(OCC5(CN6CCN(CC7CCN(c8ccc9c(c8)n(C)c(=O)n9C8CCC(=O)NC8=O)CC7)CC6)CC5)nc4c3F)c12 (centres unmarked) [Compound 15]
≥ 10 nM

What measured DC50 goes with C#Cc1c(F)ccc2cc(O)cc(-c3ncc4c(N5CCC[C@@](C)(O)C5)nc(OCC5(CN6CCN(CC7CCN(c8ccc9c(c8)n(C)c(=O)n9C8CCC(=O)NC8=O)CC7)CC6)CC5)nc4c3F)c12 (some centres unmarked) [Compound 14] ?
< 1 nM

I would be grateful if you could share the reported DC50 for C#Cc1c(F)ccc2cc(O)cc(-c3ncc4c(N5CCC[C@@](C)(O)C5)nc(OCC5(CN6CCC7(CC6)CC(N6CCN(c8ccc9c(c8)n(C)c(=O)n9C8CCC(=O)NC8=O)CC6)C7)CC5)nc4c3F)c12 (some centres unmarked) [Compound 56] .
< 1 nM

Entry CCc1c(F)ccc2cc(O)cc(-c3ncc4c(N5CCC[C@@](C)(O)C5)nc(OC[C@@]56CCCN5[C@H](COC(=O)N5CC7(CCC(CN8CCC(c9ccc%10c(c9)n(C)c(=O)n%10C9CCC(=O)NC9=O)CC8)CC7)C5)CC6)nc4c3F)c12 (some centres unmarked) [Compound 448] has what DC50?
< 1 nM

Recorded DC50 of CCc1c(F)ccc2cc(O)cc(-c3ncc4c(N5CCC[C@@](C)(O)C5)nc(OC[C@]56CCCN5[C@H](CCCN5CCC(c7ccc8c(c7)n(C)c(=O)n8C7CCC(=O)NC7=O)CC5)CC6)nc4c3F)c12 (some centres unmarked) [Compound 473] , please.
1 to 10 nM

Using the record for C#Cc1c(F)ccc2cccc(-c3ncc4c(N5CCC[C@@](C)(O)C5)nc(OC[C@]56CCCN5[C@H](COC(=O)N5CCC(CN7CCC(c8ccc9c(c8)n(C)c(=O)n9C8CCC(=O)NC8=O)CC7)CC5)CC6)nc4c3F)c12 (some centres unmarked) [Compound 141] , report its DC50.
< 1 nM

Fill blank: measured DC50 of the molecule CCc1c(F)ccc2cc(O)cc(-c3ncc4c(N5CCC[C@@](C)(O)C5)nc(OC[C@@]56CCCN5[C@H](COC(=O)N5CCC7(CCC(N8CCC(c9ccc%10c(c9)n(C)c(=O)n%10C9CCC(=O)NC9=O)CC8)C7)CC5)CC6)nc4c3F)c12 (some centres unmarked) [Compound 455] is ____.
< 1 nM

Which DC50 value is on record for CCc1c(F)ccc2cc(O)cc(-c3ncc4c(N5CCC[C@@](C)(O)C5)nc(OC[C@]56CCCN5[C@H](COC(=O)N5CCC(c7ccc8c(c7)n(C)c(=O)n8C7CCC(=O)NC7=O)CC5)CC6)nc4c3F)c12 (some centres unmarked) [Compound 307] ?
1 to 10 nM

GET /values?readout=DC50&item= C#Cc1c(F)ccc2cc(O)cc(-c3ncc4c(N5CCCCCC5)nc(OC[C@@]56CCCN5[C@H](COC(=O)N5CCC(CN7CCC(c8ccc9c(c8)n(C)c(=O)n9C8CCC(=O)NC8=O)CC7)CC5)CC6)nc4c3F)c12 (some centres unmarked) [Compound 123]
< 1 nM

Request the reported DC50 associated with CCc1c(F)ccc2cc(O)cc(-c3ncc4c(N5CCC[C@@](C)(O)C5)nc(OC[C@]56CCCN5[C@H](COC(=O)NC5CCCN(c7ccc8c(c7)n(C)c(=O)n8C7CCC(=O)NC7=O)C5)CC6)nc4c3F)c12 (some centres unmarked) [Compound 309]
1 to 10 nM

Query: DC50; subject: CCc1c(F)ccc2cc(O)cc(-c3ncc4c(N5CCC[C@@H](N)C5)nc(OC[C@@]56CCCN5[C@H](COC(=O)N5CCC7(CC5)CC(N5CCC(c8ccc9c(c8)n(C)c(=O)n9C8CCC(=O)NC8=O)CC5)C7)CC6)nc4c3F)c12 (some centres unmarked) [Compound 476]
1 to 10 nM

Return reported DC50; argument: CCc1c(F)ccc2cc(O)cc(-c3ccc4c(N5CCC[C@@](C)(O)C5)nc(OC[C@@]56CCCN5[C@H](COC(=O)N5CCC(CN7CCC(c8cc9c(cc8F)n(C8CCC(=O)NC8=O)c(=O)n9C)CC7)CC5)CC6)nc4c3F)c12 (some centres unmarked) [Compound 424]
< 1 nM

Can you look up the measured DC50 of CCc1c(F)ccc2cc(O)cc(-c3ncc4c(N5CCCCCC5)nc(OC[C@@]56CCCN5[C@H](COC(=O)N5CCC7(CC5)CC(N5CCC(c8ccc9c(c8)n(C)c(=O)n9C8CCC(=O)NC8=O)CC5)C7)CC6)nc4c3F)c12 (some centres unmarked) [Compound 344] for me?
1 to 10 nM

The values you see were collected from patent US12599672B2.
